Ref: patent US4829076A

# System: anesthetized, normotensive cats
# assayOverview: Hypotensive effect in anesthetized, normotensive cats
# Assay type: in vivo, cat
# conditionLabel: 1 mg/kg id., 30 min
Use 80 Hgmm as the dividing line for Mean arterial pressure, 30 min, with the line itself on the criterion met side and lower values as criterion not met.

Before answering, review these 8 worked examples.
{"molecule": "COC(=O)C1=C(C)NC(C)=C(C(=O)OC)C1c1ccccc1NC(=O)c1ccc(OC)cc1", "assignedCategory": "criterion met"}
{"molecule": "CCCCCCCC(=O)Nc1ccccc1C1C(C(=O)OC)=C(C)NC(C)=C1C(=O)OC", "assignedCategory": "criterion met"}
{"molecule": "COC(=O)C1=C(C)NC(C)=C(C(=O)OC)C1c1ccccc1NC(=O)c1ccc([N+](=O)[O-])cc1", "assignedCategory": "criterion not met"}
{"molecule": "COC(=O)C1=C(C)NC(C)=C(C(=O)OC)C1c1ccccc1NC(=O)c1ccc(Cl)cc1", "assignedCategory": "criterion not met"}
{"molecule": "COC(=O)C1=C(C)NC(C)=C(C(=O)OC)C1c1ccccc1NC(=O)c1cccc(C)c1", "assignedCategory": "criterion met"}
{"molecule": "COC(=O)C1=C(C)NC(C)=C(C(=O)OC(C)C)C1c1ccccc1NC(=O)C(F)(F)F (stereo not shown)", "assignedCategory": "criterion met"}
{"molecule": "COC(=O)C1=C(C)NC(C)=C(C(=O)OC)C1c1ccccc1NC(=O)C(F)(F)F", "assignedCategory": "criterion not met"}
{"molecule": "COCCOC(=O)C1=C(C)NC(C)=C(C(=O)OC)C1c1ccccc1NC(=O)c1ccc([N+](=O)[O-])cc1 (stereo not shown)", "assignedCategory": "criterion met"}

Q: Does "COC(=O)C1=C(C)NC(C)=C(C(=O)OC)C1c1ccccc1NC(=O)c1ccccc1" have a reported Mean arterial pressure, 30 min of at least 80 Hgmm?
Ans: criterion met

Q: Does "COC(=O)C1=C(C)NC(C)=C(C(=O)OC)C1c1ccccc1NC(=O)C=Cc1ccc([N+](=O)[O-])cc1" have a reported Mean arterial pressure, 30 min of at least 80 Hgmm?
Ans: criterion met

Q: Does "COC(=O)C1=C(C)NC(C)=C(C(=O)OC)C1c1ccccc1NC(=O)c1ccc(C)cc1" have a reported Mean arterial pressure, 30 min of at least 80 Hgmm?
Ans: criterion not met

Q: Does "COC(=O)C1=C(C)NC(C)=C(C(=O)OC)C1c1ccccc1NC(=O)C=Cc1ccccc1" have a reported Mean arterial pressure, 30 min of at least 80 Hgmm?
Ans: criterion not met

Q: Does "COC(=O)C1=C(C)NC(C)=C(C(=O)OC)C1c1ccccc1NC(=O)c1ccccc1C" have a reported Mean arterial pressure, 30 min of at least 80 Hgmm?
Ans: criterion met

Q: Does "COC(=O)C1=C(C)NC(C)=C(C(=O)OC)C1c1ccccc1NS(C)(=O)=O" have a reported Mean arterial pressure, 30 min of at least 80 Hgmm?
Ans: criterion met

Q: Does "CCc1ccc(C(=O)Nc2ccccc2C2C(C(=O)OC)=C(C)NC(C)=C2C(=O)OC)cc1" have a reported Mean arterial pressure, 30 min of at least 80 Hgmm?
Ans: criterion met
